Each recorded value in this set is attributed to ChEMBL document CHEMBL2016437.

- TEST_NAME: Cytotoxicity against human U937 cells after 1 to 4 hrs by MTS assay
- Type: cell-based, U-937
METRIC: CC50

Input line: Entry `COc1ccc(S(=O)(=O)N(CC(C)C)C[C@@H](O)COc2ccc3sccc3c2)cc1OC` has what CC50?
Output line: > 90 µM
